# TEST SYSTEM: Protein deacetylase HDAC6 (Homo sapiens)
# Sequence (Q9UBN7 whole entry): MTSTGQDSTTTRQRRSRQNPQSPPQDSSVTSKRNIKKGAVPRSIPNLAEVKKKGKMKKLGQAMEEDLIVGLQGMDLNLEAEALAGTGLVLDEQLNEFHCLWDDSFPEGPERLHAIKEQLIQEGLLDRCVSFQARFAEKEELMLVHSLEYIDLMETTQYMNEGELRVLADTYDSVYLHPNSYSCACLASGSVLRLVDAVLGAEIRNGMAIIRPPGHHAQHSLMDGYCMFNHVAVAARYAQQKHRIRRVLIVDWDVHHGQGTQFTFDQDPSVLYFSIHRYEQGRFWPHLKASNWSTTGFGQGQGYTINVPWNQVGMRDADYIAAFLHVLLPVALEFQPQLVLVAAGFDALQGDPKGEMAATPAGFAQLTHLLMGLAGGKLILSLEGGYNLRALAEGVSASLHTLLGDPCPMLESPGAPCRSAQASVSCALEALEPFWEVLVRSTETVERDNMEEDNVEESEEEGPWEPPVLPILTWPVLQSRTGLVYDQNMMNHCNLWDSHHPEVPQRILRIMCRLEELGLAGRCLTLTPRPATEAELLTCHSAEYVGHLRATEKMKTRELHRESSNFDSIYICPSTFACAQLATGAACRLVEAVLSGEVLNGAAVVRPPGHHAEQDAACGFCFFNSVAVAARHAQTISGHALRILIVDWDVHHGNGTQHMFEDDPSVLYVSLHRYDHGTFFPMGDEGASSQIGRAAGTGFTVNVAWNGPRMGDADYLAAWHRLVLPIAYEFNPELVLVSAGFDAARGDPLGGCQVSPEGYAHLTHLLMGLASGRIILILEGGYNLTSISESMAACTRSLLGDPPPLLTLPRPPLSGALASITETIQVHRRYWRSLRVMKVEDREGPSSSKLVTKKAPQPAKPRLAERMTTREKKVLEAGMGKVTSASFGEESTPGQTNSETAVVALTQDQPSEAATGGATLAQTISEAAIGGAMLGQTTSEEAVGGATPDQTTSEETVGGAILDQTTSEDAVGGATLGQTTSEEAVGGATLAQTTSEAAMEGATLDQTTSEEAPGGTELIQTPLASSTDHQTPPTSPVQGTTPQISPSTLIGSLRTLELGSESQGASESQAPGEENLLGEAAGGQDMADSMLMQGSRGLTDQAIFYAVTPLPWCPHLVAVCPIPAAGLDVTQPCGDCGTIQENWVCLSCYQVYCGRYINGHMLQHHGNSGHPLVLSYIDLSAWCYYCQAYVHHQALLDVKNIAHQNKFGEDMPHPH
# MEASUREMENT NOTES: Inhibition of recombinant C-terminal FLAG-tagged HDAC6 (unknown origin) using Ac-NH-GGK(Ac)-AMC as substrate measured after 180 mins by fluorescence assay
REPORTED METRIC: IC50 (nM)
Lab book: enter the figure in nM, no units written.

Enquiry: For the compound CN(C)Cc1ccc(S(=O)(=O)n2ccc(/C=C/C(=O)NO)c2)cc1 , what IC50 is on record?
Return: 72

###

Recorded IC50 values for a group of compounds are listed next.
# TEST SYSTEM: Protein deacetylase HDAC6 (Homo sapiens)
# MEASUREMENT NOTES: Inhibition of human N-terminal GST-tagged HDAC6 expressed in baculovirus infected insect cells using RHKKAc as substrate
Non-standard residues stand in square brackets, D forms with d. Residues, ends and D or L forms follow the SMILES beside them. *: point of attachment. 4Amb = NCc1ccc(C(=O)O)cc1; Cbz = O=C(OCc1ccccc1)*; NHOH = ON*
Lab book: enter the figure in nM, no units written.

>  <COMPOUND>
CC(C)C[C@H](NC(=O)OCc1ccccc1)C(=O)N[C@@H](C)C(=O)NCc1ccc(C(=O)NO)cc1 (Cbz-Leu-Ala-[4Amb]-{NHOH})

>  <IC50, nM>
314

$$$$

Here is the next item to consider.
Enquiry: Recall the recorded IC50 for O=C(NO)c1ccc(CNC(=O)c2cccnc2C(F)(F)F)cc1 with Protein deacetylase HDAC6 (Homo sapiens) and state it.
Return: 17
